Test: A qHTS for Small Molecule Inhibitors of Shiga Toxin
Conditions: Vero cells, Shiga toxin protein synthesis inhibition reporter; at 38.7 µM
Out of some 290,000 compounds screened, about 27,000 (9.3%) were called active. Cut-off read from the data, not from the text of the source: active = inhibition mostly above about 28% (no sharp cut-off); inactive = mostly below about 43%. This is one part of a sample in which actives are shown more often than they occur.
Your response should consist of one outcome taken from yes (1) = active, no (0) = inactive

CC(C(=O)NC1CCS(=O)(=O)C1)N1C(=O)/C(=C/c2ccc(Cl)cc2)SC1=S (configuration not stated) | no (0)
O=C(CCc1nnc2ccc(NCc3ccco3)nn12)Nc1cc(F)ccc1F | no (0)
Cc1cccc(NC(=O)c2cccc(C(F)(F)F)c2)c1 | yes (1)
CN(C)/C=C(/C(=O)c1ccccc1)S(=O)(=O)c1ccc(Cl)cc1 | no (0)

Q: Status in this test for Cc1ccc(C(C(=O)NCC2CCCO2)N(C(=O)c2snc(C(N)=O)c2N)c2ccc(C(C)C)cc2)o1 (configuration not stated) ?
A: no (0)

Q: Identify the outcome logged in this assay for the molecule shown: O=C(NC1CCCC1)C(c1ccc(Cl)cc1)N(C(=O)c1csnn1)C1CC1 (configuration not stated)
A: no (0)

Q: Hi, sorry to bother you, what did the test record for `O=C(CNC(=O)c1ccc(Br)o1)Nc1ccccc1` ?
A: no (0)

Q: Short answer needed: outcome of this test for O=C(COc1ccc2ccc(=O)oc2c1)NCC(O)c1ccccc1 (configuration not stated) ?
A: no (0)

Q: Dear colleague, could you share the recorded outcome for O=C(CCC1CCCN(C(=O)Cc2ccc(F)cc2)C1)N1CCN(c2ccccn2)CC1 (configuration not stated) when you have a moment?
A: no (0)

Q: Name the outcome recorded for `CCN(C(=O)COc1ccc(C(=O)c2ccccc2)cc1)c1ccccc1` in the assay.
A: no (0)

Q: What was the test verdict on `Cc1cccc(NC(=O)NC(=S)NC(=O)c2ccccc2)c1` ?
A: yes (1)

Q: Which result was noted for this molecule in the test: `O=C(Nc1cccc(-c2nc3ncccc3o2)c1)c1ccco1`
A: no (0)

Q: Returns: the outcome recorded for `Cc1cccc(NC(=S)NC23CN4CN(CN(C4)C2)C3)c1` in this assay.
A: no (0)

---

Assay: A qHTS for Small Molecule Inhibitors of Shiga Toxin
Conditions: Vero cells, Shiga toxin protein synthesis inhibition reporter; at 38.7 µM, active compounds read high
Out of some 290,000 compounds screened, about 27,000 (9.3%) were called active. The full list was thinned out, with actives kept by preference.
Decide by inhibition: equal to or exceeding 40% means 1.0, less means 0.0.

N#Cc1ccc(N2Cc3ccccc3/C2=N/C(=O)Nc2ccc(Cl)cc2)cc1 | 0.0
CCOC(=O)CSc1nnc(-c2ccc([N+](=O)[O-])cc2)o1 | 0.0

Q: Threshold query (inhibition >= 40%) on COC(=O)C1(C)CC1(c1ccccc1)c1ccccc1 (configuration not stated)
A: 0.0

Q: Determine whether measured inhibition meets or exceeds 40% for `Cc1ccc2nc(-c3ccc(NC(=O)c4cccnc4)cc3)oc2c1`
A: 1.0

Q: # bool: inhibition of `Cc1nn(CC2CC2)c(=O)n1N(C)c1ncc(C(F)(F)F)cc1Cl` >= 40%
A: 0.0

Q: Answer whether inhibition of `O=C(CCCN1CCc2[nH]c3ccc(F)cc3c2C1)c1ccc(F)cc1` is greater than or equal to 40%.
A: 0.0

Q: inhibition >= 40% for `COc1ccc(N(CCC#N)S(=O)(=O)c2ccc(Cl)cc2)cc1` ?
A: 1.0

Q: Dear colleague, could you confirm whether `Cc1cc(NS(=O)(=O)c2ccc(NC(=O)c3cccnc3)cc2)nc(C)n1` has inhibition at or above 40%?
A: 0.0

---

Assay: A qHTS for Small Molecule Inhibitors of Shiga Toxin
Conditions: Vero cells, Shiga toxin protein synthesis inhibition reporter; at 38.7 µM, active compounds read high
Screen size: about 290,000 compounds; about 27,000 (9.3%) were called active. This excerpt belongs to a sample that is enriched for actives.
measuredProperty: inhibition (%)
Numbers only, in %.

OC(COc1ccc(Br)cc1)CN1CCCC1 (stereo not given) | -1.94

Look at each compound and report its inhibition.
1. CC1CN(C(=O)CCC(=O)NCc2cccnc2)c2ccccc2O1 (stereo not given)
2. CC(C)[C@H](NC(=O)N1CCn2c1nc1ccccc12)C(=O)NCc1ccc2c(c1)OCO2
3. COc1cccc(N(CC(=O)Nc2cccc(N(C)S(C)(=O)=O)c2)S(C)(=O)=O)c1
4. CC(=O)c1ccc(N2CCN(C(=O)C3CCN(S(=O)(=O)c4ccc5c(c4)CC(C)N5C(=O)C4CC4)CC3)CC2)cc1 (stereo not given)

A:
1. -5.3
2. 10.7
3. -9.96
4. 22.9

---

Experiment: A qHTS for Small Molecule Inhibitors of Shiga Toxin
Conditions: Vero cells, Shiga toxin protein synthesis inhibition reporter; at 38.7 µM
Out of some 290,000 compounds screened, about 27,000 (9.3%) were called active. Rule as the data show it: active = inhibition mostly above about 28% (no sharp cut-off); inactive = mostly below about 43%. What follows is part of a selection rich in actives, with near analogues and random picks from the rest.
Respond only with the outcome that fits, drawn from label 1 (active), label 0 (inactive)

Recorded results for 2 compounds are shown here.
Cc1nccn1CC(=O)N/N=C/c1ccc(O)c(O)c1 | label 0
Oc1ccc(/C=N/Nc2ccc(C(F)(F)F)cn2)cc1O | label 1

Q: Kindly provide the recorded test outcome for the following compound: `Cc1ccc(NC(=O)O/N=C/c2cccc([N+](=O)[O-])c2)cc1`
A: label 1

Q: Dear colleague, could you share the recorded outcome for `O=C(CCC(=O)N/N=C/c1ccc(Br)o1)N/N=C/c1ccc(Br)o1` when you have a moment?
A: label 0

Q: Just curious, what result did `CCOC(=O)c1sc(NC(=O)c2sc(C)nc2C)nc1C` get here?
A: label 0

Q: Record request — test call for `CCc1nc(SCC(=O)NNC(=O)c2ccc(C)cc2)c2ccccc2n1`
A: label 0

Q: Would you mind telling me which call this test gave `COc1ccc(/C=C(/NC(=O)c2ccccc2)C(=O)Nc2cccc(C(=O)O)c2)cc1` ?
A: label 0

Q: Which outcome was entered for the compound `Cc1c(C)c2c(OCC(=O)NCCCO)cc3c(c2oc1=O)CCC(C)(C)O3` in this test?
A: label 0

---

Assay: A qHTS for Small Molecule Inhibitors of Shiga Toxin
Details: Vero cells, Shiga toxin protein synthesis inhibition reporter; at 38.7 µM
The whole screen tested about 290,000 compounds, of which about 27,000 (9.3%) were called active. No stated cut-off is given here; in the data, active means inhibition mostly above about 28% (no sharp cut-off); inactive means mostly below about 43%. For the sample, actives were picked, then their nearest neighbours and some compounds at random.
Field 'call' accepts 1 for active, 0 for inactive

Take a look at these entries with their results.
Cc1ccccc1C(CC(=O)c1cccs1)C(C#N)C#N (stereo not drawn) | 1
COc1ccc(CNC(=O)C2CCN(S(=O)(=O)c3ccc(SC)cc3)CC2)cc1 | 0
CC(=O)c1cccc(NC(=O)c2ccncc2)c1 | 0
O=S(=O)(NCCc1csc(-c2ccccc2)n1)c1cccnc1 | 1
O=C(NCCc1nnc2ccc(SCC(=O)N3CCOCC3)nn12)c1ccccc1 | 0
CCc1ccc(NC(=O)CS(=O)CC(=O)N2CCN(c3ccccc3F)CC2)cc1 (stereo not drawn) | 0
Cc1cccc([C@@H]2[C@@H]3C(=O)N(Cc4ccccc4)C(=O)[C@@H]3[C@]3(C)C(=O)N(c4ccc(Br)cc4)C(=O)N23)c1 | 0
Cc1cccc(OCC(O)CN2CCN(S(=O)(=O)c3ccc(C)cc3C)CC2)c1 (stereo not drawn) | 0

Q: Per the assay record, what outcome was assigned to `O=S(=O)(NCCc1ccncc1)c1ccccc1` ?
A: 0

Q: Could you check what this test reported for `Clc1nc(NC2CCCC2)nc(N2CCOCC2)n1` ?
A: 0

Q: Hey, what did the test say about CCCCN(CC)C(=O)C1CCCN(S(=O)(=O)c2cccc3nsnc23)C1 (stereo not drawn) ?
A: 0

Q: Just curious, what result did `COc1cccc(NC(=O)Cn2c3ccc(F)cc3c3nc4n(c(=O)c32)CCS4)c1` get here?
A: 0

Q: Please share the test call associated with `Cc1nc2sc3c(c2c(=O)n1NC(=O)CCl)CCCC3` .
A: 0

Q: Called result for C[C@@H]1CC[C@@]2(OC1)O[C@H]1C[C@H]3[C@@H]4CC=C5C[C@@H](O)[C@H](O)C[C@]5(C)C4CC[C@]3(C)[C@H]1[C@@H]2C (stereo partly drawn)
A: 0

Q: Record request — test call for `CCc1nc(SCC(=O)Nc2ccccc2OC)n[nH]1`
A: 0

Q: What is the recorded call for this compound in the test? `Oc1[nH]c2ccc(Br)cc2c1N=Nc1nn[nH]n1`
A: 0

Q: Would you mind telling me which call this test gave CC(C)(C)c1ccc(C(CC(=O)O)NS(=O)(=O)Cc2ccccc2)cc1 (stereo not drawn) ?
A: 0

Q: Can you look up the reported call for `O=C(Nc1ccccc1N1CCN(C(=O)c2ccccc2)CC1)c1ccco1` for me?
A: 0

---

Assay: A qHTS for Small Molecule Inhibitors of Shiga Toxin
Settings: Vero cells, Shiga toxin protein synthesis inhibition reporter; at 38.7 µM, active compounds read high
Hit rate of the full screen: of about 290,000 compounds, about 27,000 (9.3%) were called active. The entries come from a sample that favours actives as a whole.
measuredProperty: inhibition (%)
Numbers only, in %.

CCOc1ccc(NC(=O)[C@H](C)NC(=O)C2CC(=O)N(c3ccc(OC)cc3)C2)cc1 (stereo partly drawn) | -4.28
Cc1cccc(C)c1-n1c(C)cc(/C=C2\C(=O)NN(c3ccccc3)C2=O)c1C | -7.74

Q: Given the entry CCn1c(SCC(=O)NC2=NCCS2)nnc1C(C)NC(=O)c1ccccc1F (stereo not drawn) , report its measured inhibition.
A: -15.6
